// reported pIC50 per item
# Tested on: HEK-Blue IL-17 cells with rhIL-17A/A
# Test Protocol: HEK-Blue IL-17 cell assay (SEAP reporter, rhIL-17A/A stimulation)
# Format: cell-based, human
# Measurement Setup: Homo sapiens, HEK-Blue, 20 h, 20 hours incubation, absorbance at 405 nm, read-out: IC50 in HEK-Bule cell Assay
pIC50: −log10 of the molar value.

- Molecule: "CC(C)C1CN(C(=O)N2CC(F)(F)C2)c2ccc(NC(=O)[C@@H](NC(=O)c3ccnn3C(C)C)C3CCCCCC3)cc2O1 (stereo partly shown)"
  pIC50: 7.52
- Molecule: "CC(C)n1nccc1C(=O)N[C@H](C(=O)Nc1cc2c(cc1F)[C@H](C(=O)N1CC(F)(F)C1)C[C@H](C1CC(F)(F)C1)O2)[C@H]1CC[C@H](C)CC1"
  pIC50: 7.61
- Molecule: "CC(C)n1nccc1C(=O)N[C@H](C(=O)Nc1ccc2c(c1)O[C@H](C1CC(F)(F)C1)C[C@H]2C(=O)N1CC(F)(F)C1)C1CCCCCC1"
  pIC50: 7.31
- Molecule: "CC(C)n1nccc1C(=O)N[C@H](C(=O)Nc1ccc2c(c1)O[C@@H](C1CC(F)(F)C1)C[C@H]2C(=O)N1CC(F)(F)C1)C1CCCCCC1"
  pIC50: 7.72
- Molecule: "CC(C)n1nccc1C(=O)N[C@H](C(=O)Nc1cc2c(cc1F)[C@H](C(=O)N1CC(F)(F)C1)C[C@H](C1CC(F)(F)C1)O2)C(C1CC1)C1CC1"
  pIC50: 7.66
- Molecule: "CC(C)n1nccc1C(=O)N[C@H](C(=O)Nc1ccc2c(c1)SCCC2C(=O)N1CC(F)(F)C(F)(F)C1)C1CCCCCC1 (stereo partly shown)"
  pIC50: 7.03
- Molecule: "CC(C)n1nccc1C(=O)N[C@H](C(=O)Nc1ccc2c(c1)CCCC2C(=O)N1CC(F)(F)C1)C1CCCCCC1 (stereo partly shown)"
  pIC50: 6.56
- Molecule: "O=C(N[C@H](C(=O)Nc1ccc2c(c1)OC(C1CC(F)(F)C1)CC2C(=O)N1CC(C(F)(F)F)C1)C1CCCCCC1)OCC1CC1(F)F (stereo partly shown)"
  pIC50: 6.65
- Molecule: "CC(C)C1CC(C(=O)N2CC(C(F)(F)F)C2)c2ccc(NC(=O)[C@@H](NC(=O)c3ccnn3C(C)C)C3CCCCCC3)cc2O1 (stereo partly shown)"
  pIC50: 7.14
- Molecule: "CC(C)n1nccc1C(=O)N[C@H](C(=O)Nc1ccc2c(c1)OC(C1CC(F)(F)C1)CC2C(=O)N1CC(C(F)(F)F)C1)C1CCCCCC1 (stereo partly shown)"
  pIC50: 6.94
- Molecule: "CC(C)n1nccc1C(=O)N[C@H](C(=O)Nc1ccc2c(c1)OC1(CCC(F)(F)CC1)CC2C(=O)N1CC(F)(F)C1)C1CCCCCC1 (stereo partly shown)"
  pIC50: 7.35
- Molecule: "CCC1(CC)CC(C(=O)N2CC(F)(F)C2)c2ccc(NC(=O)[C@@H](NC(=O)c3ccnn3C(C)C)C3CCCCCC3)cc2O1 (stereo partly shown)"
  pIC50: 6.99
- Molecule: "CC1CN(C(=O)N2CC(F)(F)C2)c2ccc(NC(=O)[C@@H](NC(=O)c3ccnn3C(C)C)C3CCCCCC3)cc2O1 (stereo partly shown)"
  pIC50: 7.14
- Molecule: "CC(C)n1nccc1C(=O)N[C@H](C(=O)Nc1ccc2c(c1F)OC(C1CC(F)(F)C1)CC2C(=O)N1CC(F)(F)C1)C1CCCCCC1 (stereo partly shown)"
  pIC50: 6.88
- Molecule: "CC(C)n1nccc1C(=O)N[C@H](C(=O)Nc1ccc2c(c1)OC1(CCOCC1)CC2C(=O)N1CC(F)(F)C1)[C@H]1CC[C@H](C)CC1 (stereo partly shown)"
  pIC50: 7.51
- Molecule: "CC(C)n1nccc1C(=O)N[C@H](C(=O)Nc1ccc2c(c1)OC(C(C)(C)C)CC2C(=O)N1CC(F)(F)C(F)(F)C1)C1CCCCCC1 (stereo partly shown)"
  pIC50: 6.95
- Molecule: "CC(C)n1nccc1C(=O)N[C@H](C(=O)Nc1ccc2c(c1)OC(C1CCCC1)CC2C(=O)N1CC(F)(F)C(F)(F)C1)C1CCCCCC1 (stereo partly shown)"
  pIC50: 6.59
- Molecule: "CC(C)n1nccc1C(=O)N[C@H](C(=O)Nc1ccc2c(c1)OCC[C@H]2C(=O)N1CC(F)(F)C(F)(F)C1)C1CCCCCC1"
  pIC50: 6.81
- Molecule: "CC(C)n1nccc1C(=O)N[C@H](C(=O)Nc1ccc2c(c1)OC1(CCOCC1)C[C@H]2C(=O)N1CC(F)(F)C1)C(C1CC1)C1CC1"
  pIC50: 7.45

Data origin: patent US20250011303A1
